From: patent US11591564B2

tested on: H1 hESCs; assay: Cell expansion by MTS assay, day 6 normalized to day 1; type: cell-based, human; settings: 6 days of propagation; alginate modified with 50 μg/ml peptide, or recombinant E-cadherin
No end group written: not given here.
READOUT LABEL: fold expansion of hPSCs (day 6 / day 1) (fold)
Please give a number only; it is taken to be in fold.

Query SHAVSS (also: conjugated to alginate hydrogel, site not given here) [HAV6] yields fold expansion of hPSCs (day 6 / day 1) of 16

Query ADTPPV (also: conjugated to alginate hydrogel, site not given here) [ADT6] yields fold expansion of hPSCs (day 6 / day 1) of 11

###

tested on: H1 hESCs; test: Directed differentiation to definitive endoderm, qRT-PCR of SOX17 and FOXA2; type: cell-based, human; conditions: after DE induction (ActivinA + Wnt3A, 4 days)
No end group written: not given here.
READOUT LABEL: FOXA2 gene expression, fold increase
A complete answer gives the number and then names the unit.

Query LFSHAVSSNG (also: conjugated to alginate hydrogel, site not given here) [HAV10] yields FOXA2 gene expression, fold increase of 497 fold

Query SHAVSS (also: conjugated to alginate hydrogel, site not given here) [HAV6] yields FOXA2 gene expression, fold increase of 355 fold

Query QGADTPPVGV (also: conjugated to alginate hydrogel, site not given here) [ADT10] yields FOXA2 gene expression, fold increase of 409 fold

Query ADTPPV (also: conjugated to alginate hydrogel, site not given here) [ADT6] yields FOXA2 gene expression, fold increase of 174 fold
